Cited source: patent US8129371B2

- subject_of_test: PI3K (Homo sapiens, UniProt P42336)
- Construct: PI3 Kinase α IC50; other: PI3 Kinase α; other: PI3 Kinase α isoform, fluorescence polarization
- Sequence (P42336 whole entry, canonical isoform): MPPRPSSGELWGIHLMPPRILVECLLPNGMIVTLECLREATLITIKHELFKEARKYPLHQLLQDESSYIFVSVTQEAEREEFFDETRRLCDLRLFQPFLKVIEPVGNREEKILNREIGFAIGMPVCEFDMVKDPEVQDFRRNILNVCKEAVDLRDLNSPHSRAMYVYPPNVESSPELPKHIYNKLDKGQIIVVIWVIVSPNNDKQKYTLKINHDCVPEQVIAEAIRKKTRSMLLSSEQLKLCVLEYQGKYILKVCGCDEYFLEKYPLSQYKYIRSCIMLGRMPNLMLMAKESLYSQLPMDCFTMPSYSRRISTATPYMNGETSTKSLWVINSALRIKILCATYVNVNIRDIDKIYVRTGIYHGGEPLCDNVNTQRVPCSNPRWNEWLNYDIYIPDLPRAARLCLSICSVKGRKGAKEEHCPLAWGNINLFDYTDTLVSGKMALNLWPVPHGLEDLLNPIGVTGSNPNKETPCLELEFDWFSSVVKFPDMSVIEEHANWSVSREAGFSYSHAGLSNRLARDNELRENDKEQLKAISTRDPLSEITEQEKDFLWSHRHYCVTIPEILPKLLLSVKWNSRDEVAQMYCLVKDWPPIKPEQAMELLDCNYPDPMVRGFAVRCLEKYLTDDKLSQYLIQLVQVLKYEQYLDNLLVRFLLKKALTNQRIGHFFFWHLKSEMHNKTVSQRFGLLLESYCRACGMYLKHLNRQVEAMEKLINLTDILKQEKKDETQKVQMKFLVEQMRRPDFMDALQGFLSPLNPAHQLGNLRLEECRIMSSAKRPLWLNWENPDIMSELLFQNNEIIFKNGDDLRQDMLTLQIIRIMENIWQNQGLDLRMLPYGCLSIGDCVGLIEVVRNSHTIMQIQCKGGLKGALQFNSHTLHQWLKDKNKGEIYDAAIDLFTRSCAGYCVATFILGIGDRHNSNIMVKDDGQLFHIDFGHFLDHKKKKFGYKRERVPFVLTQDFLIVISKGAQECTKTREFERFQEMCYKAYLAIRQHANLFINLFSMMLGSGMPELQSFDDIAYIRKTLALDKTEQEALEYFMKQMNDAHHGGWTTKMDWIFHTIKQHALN
- test_protocol: Fluorescence polarization assay for PI3K
- Assay type: biochemical
- condition_context: PI3 Kinase α; read-out: PI3 Kinase α IC50
- Protocol: This assay is used to determine the IC50 of compounds of the present invention as it identifies inhibitors of PI3 kinase by measuring inhibition. […] Stop/detector mix is prepared by mixing 4 μL Red detector and 1.6 μL or 2.0 μL GST-GRP with 1 mL Stop buffer, which results in 10 nM probe and 70 nM GST-GRP). […] The plates are read after 30-90 minutes keeping the red probe solutions dark. […] Plates are read on machines with filters for Tamra. […]
pIC50: −log10 of the molar value.
Kindly return 1 if reported pIC50 is no lower than 7; return -1 if it is lower.

# check: pIC50 of COCCOC(=O)Nc1ccc(-c2nc(N3CC4CCC(C3)O4)c3cnn(C4CCN(C(=O)OC)CC4)c3n2)cc1 is greater than or equal to 7
-1

***
# check: pIC50 of COC(=O)N1CCC(n2ncc3c(N4CC5CCC(C4)O5)nc(-c4ccc(NC(=O)Nc5ccc(CCO)cc5)cc4)nc32)CC1 is greater than or equal to 7
1
